experiment: Ratio kcat /Km ([…]/M 1/s); design: scale not given here
test-readout: Ratio

# structure, Ratio
data = [
    ("O=C(Nc1ccc([N+](=O)[O-])cc1)[C@@H]1CCCN1", 0.0015),
]

[I] C[C@H](N)C(=O)Nc1ccc([N+](=O)[O-])cc1
[II] CCCCC/C=C\C\C=C/C=C/C=C/[C@@H]1O[C@H]1CCCC(=O)O
[III] NC(N)=NCCC[C@H](N)C(=O)Nc1ccc([N+](=O)[O-])cc1
[IV] NCCCC[C@H](N)C(=O)Nc1ccc([N+](=O)[O-])cc1
[V] CC(C)C[C@H](N)C(=O)Nc1ccc([N+](=O)[O-])cc1
Rank the 5 compounds: largest Ratio first, smallest last. Thanks in advance for listing the labels in the requested order. II, I, III, V, IV
(II: 0.09, I: 0.0012, III: 0.00075, V: 0.0005, IV: 0.00035)
